target_of_assay: NRAS Q61K (Homo sapiens (Human), UniProt P01111+P62937, Q61K)
Sequence (P01111 whole entry Q61K, one chain of several): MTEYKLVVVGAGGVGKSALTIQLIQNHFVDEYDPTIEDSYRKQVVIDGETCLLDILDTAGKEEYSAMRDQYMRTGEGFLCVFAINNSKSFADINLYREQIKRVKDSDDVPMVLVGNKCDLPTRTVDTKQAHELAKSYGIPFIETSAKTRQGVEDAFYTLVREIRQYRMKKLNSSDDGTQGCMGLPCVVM
experiment_summary: Ras-Raf (BRAF RBD) disruption / FRET / MOA assay, NRAS Q61K
Assay type: biochemical
condition_details: NRAS Q61K; Ras-Raf disruption/FRET/MOA assay; read-out: IC50* NRAS Q61K FRET data
Experimental: The purpose of this biochemical assay is to measure the ability of test compounds to facilitate ternary complex formation between a nucleotide-loaded Ras isoform and cyclophilin A; the resulting ternary complex disrupts binding to a BRAF^RBD construct, inhibiting Ras signaling through a RAF effector. […]. Compound is present in plate wells as a 10-point 3-fold dilution series starting at a final concentration of 30 μM. […]
pIC50: −log10 of the molar value.
recorded_metric: pIC50

compound | target_of_assay | pIC50
C=CC(=O)N(C)[C@@H]1C[C@@H](C)N(C(=O)N(C)[C@H](C(=O)N[C@H]2Cc3nc(cs3)-c3ccc4c(c3)c(c(-c3cccnc3[C@H](C)OC)n4CC)CC(C)(C)COC(=O)[C@@H]3CCCN(N3)C2=O)C(C)C)C1 (atropisomer, axis not shown) [Example A634] | NRAS Q61K (Homo sapiens (Human), UniProt P01111+P62937, Q61K) | 6.00 to 7.00
C=CC(=O)N1CCO[C@@H]2CN(C(=O)N(C)[C@H](C(=O)N[C@H]3Cc4nc(cs4)-c4ccc5c(c4)c(c(-c4cccnc4[C@H](C)OC)n5CC)CC(C)(C)COC(=O)[C@@H]4CCCN(N4)C3=O)C(C)C)C[C@@H]21 (atropisomer, axis not shown) [Example A714] | NRAS Q61K (Homo sapiens (Human), UniProt P01111+P62937, Q61K) | 6.00 to 7.00
C=CC(=O)N1CC[C@H](C(=O)N(C)[C@H](C(=O)NC2C[C@@H]3CN(CCO3)c3ccc4c(c3)c(c(-c3cccnc3[C@H](C)OC)n4CC)CC(C)(C)COC(=O)[C@@H]3CC(Br)CN(N3)C2=O)C(C)C)C1 (some centres unmarked) [Example A313] | NRAS Q61K (Homo sapiens (Human), UniProt P01111+P62937, Q61K) | < 5.00

For each of the compounds below, state pIC50.
1. C=CC(=O)N1CC[C@H](C(=O)N(C)[C@H](C(=O)N[C@H]2Cc3cc(O)cc(c3)-c3ccc4c(c3)c(c(-c3cccnc3[C@@H]3CCCO3)n4CC)CC(C)(C)COC(=O)[C@@H]3CCCN(N3)C2=O)C(C)C)C1 (atropisomer, axis not shown) [Example A281]
2. CCn1c(-c2cccnc2[C@H](C)OC)c2c3cc(ccc31)-c1csc(n1)C[C@H](NC(=O)[C@H](C(C)C)N(C)C(=O)N(C)C1CN(C(=O)/C=C/CN(C)C)C1)C(=O)N1CCC[C@H](N1)C(=O)OCC(C)(C)C2 (atropisomer, axis not shown) [Example A361]
3. C=CC(=O)N1CC[C@H](C(=O)N(C)[C@H](C(=O)N[C@H]2Cc3cc(O)cc(c3)-c3ccc4c(c3)c(c(-c3cc(C)ccc3[C@H](C)OC)n4CC)CC(C)(C)COC(=O)[C@@H]3CCCN(N3)C2=O)C(C)C)C1 (atropisomer, axis not shown) [Example A167]
4. C=CC(=O)N(C)[C@@H]1C[C@H](C)N(C(=O)N(C)[C@H](C(=O)N[C@H]2Cc3nc(cs3)-c3ccc4c(c3)c(c(-c3cccnc3[C@H](C)OC)n4CC)CC(C)(C)COC(=O)[C@@H]3CCCN(N3)C2=O)C(C)C)C1 (atropisomer, axis not shown) [Example A633]

["6.00 to 7.00", "6.00 to 7.00", "6.00 to 7.00", "7.00 to 8.00"]

Hi team, please reply with pIC50 for each item in this list.
1. CCn1c(-c2cccnc2[C@H](C)OC)c2c3cc(ccc31)-c1cccc(c1)C[C@H](NC(=O)[C@H](C(C)C)N1CC[C@@]3(CCN(C(=O)C#C[C@H]4COCCN4C4COC4)C3)C1=O)C(=O)N1CCC[C@H](N1)C(=O)OCC(C)(C)C2 (atropisomer, axis not shown) [Example A567]
2. CCn1c(-c2cccnc2[C@H](C)OC)c2c3cc(ccc31)-c1csc(n1)C[C@H](NC(=O)C[C@@H](C)OC1CN(C(=O)C#CC(C)(C)N(C)C)C1)C(=O)N1CCC[C@H](N1)C(=O)OCC(C)(C)C2 (atropisomer, axis not shown) [Example A638]
3. C=CC(=O)N1CC[C@H](C(=O)N(C)[C@H](C(=O)N[C@H]2Cc3cccc(c3)-c3ccc4c(c3)c(c(-c3cnn(C)c3CN(C)C)n4CC)CC(C)(C)COC(=O)[C@@H]3CCCN(N3)C2=O)C(C)C)C1 (relative stereo) [Example A329]
4. CCn1c(-c2cccnc2[C@H](C)OC)c2c3cc(ccc31)-c1csc(n1)C[C@H](NC(=O)[C@H](C(C)C)N(C)C(=O)N1CCC13CN(C(=O)/C=C/CN1CCOCC1)C3)C(=O)N1CCC[C@H](N1)C(=O)OCC(C)(C)C2 (atropisomer, axis not shown) [Example A611]
5. C=CC(=O)N1CCN(C(=O)N(C)[C@H](C(=O)N[C@H]2Cc3nc(cs3)-c3ccc4c(c3)c(c(-c3cccnc3[C@H](C)OC)n4CC(F)(F)F)CC(C)(C)COC(=O)[C@@H]3CCCN(N3)C2=O)C(C)C)CC12CC2 (atropisomer, axis not shown) [Example A679]

1. 5.00 to 6.00
2. 5.00 to 6.00
3. < 5.00
4. 7.00 to 8.00
5. 7.00 to 8.00

Provide the reported pIC50 of each entry below, same order.
1. CC#CC(=O)N1CC(N(C)C(=O)N(C)[C@H](C(=O)N[C@H]2Cc3nc(cs3)-c3ccc4c(c3)c(c(-c3cccnc3[C@H](C)OC)n4CC)CC(C)(C)COC(=O)[C@@H]3CCCN(N3)C2=O)C(C)C)C1 (atropisomer, axis not shown) [Example A731]
2. CCn1c(-c2cccnc2[C@H](C)OC)c2c3cc(ccc31)-c1csc(n1)C[C@H](NC(=O)[C@H](C(C)C)N(C)C(=O)N1CCC3(CC1)CN(C(=O)/C=C/C(F)F)C3)C(=O)N1CCC[C@H](N1)C(=O)OCC(C)(C)C2 (atropisomer, axis not shown) [Example A683]

1. 6.00 to 7.00
2. 7.00 to 8.00

----------
target_of_assay: K-Ras G13C (Homo sapiens (Human), UniProt P01116+P62937, G13C)
Sequence (P01116-2 other isoform, or with tags, fused parts or gaps G13C): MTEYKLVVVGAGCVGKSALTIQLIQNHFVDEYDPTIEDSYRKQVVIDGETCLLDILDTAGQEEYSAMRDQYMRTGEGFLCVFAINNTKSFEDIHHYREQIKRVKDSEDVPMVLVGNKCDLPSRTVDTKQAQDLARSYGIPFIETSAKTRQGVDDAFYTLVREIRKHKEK
Sequence (P62937 whole entry): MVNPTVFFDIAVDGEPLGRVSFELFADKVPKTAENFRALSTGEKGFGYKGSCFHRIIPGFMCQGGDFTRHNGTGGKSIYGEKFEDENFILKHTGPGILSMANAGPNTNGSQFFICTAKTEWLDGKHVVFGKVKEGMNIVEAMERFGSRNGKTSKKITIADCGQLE
experiment_summary: Ras-Raf (BRAF RBD) disruption / FRET / MOA assay, KRAS G13C
Type: biochemical
condition_details: KRAS G13C; Ras-Raf disruption/FRET/MOA assay; read-out: IC50* KRAS G13C FRET data
recorded_metric: IC50

compound | IC50
C=CC(=O)N1CCO[C@@]2(CCN(C(=O)N(C)[C@H](C(=O)N[C@H]3Cc4nc(cs4)-c4ccc5c(c4)c(c(-c4cccnc4[C@H](C)OC)n5CC(F)(F)F)CC(C)(C)COC(=O)[C@@H]4CCCN(N4)C3=O)C(C)C)C2)C1 (atropisomer, axis not shown) [Example A594] | 10 to 100 nM

Working through the 7 compounds below one at a time, give IC50 for each.
1. COCc1ncccc1-c1nc2ccc3cc2n1CC(C)(C)COC(=O)[C@@H]1CCCN(N1)C(=O)[C@@H](NC(=O)[C@H](C(C)C)N(C)C(=O)[C@H]1CCN(C(=O)C#CCN2CCOCC2)C1)Cc1cc(O)cc-3c1 [Example A188]
2. C=CC(=O)N1CC[C@H](C(=O)N(C)[C@H](C(=O)N[C@H]2Cc3ncc(n3C)-c3ccc4c(c3)c(c(-c3cccnc3[C@H](C)OC)n4CC)CC(C)(C)COC(=O)[C@@H]3CCCN(N3)C2=O)C(C)C)C1 (atropisomer, axis not shown) [Example A276]
3. C=CC(=O)N1CC[C@]2(COCCN2C(=O)N(C)[C@H](C(=O)N[C@H]2Cc3nc(cs3)-c3ccc4c(c3)c(c(-c3cccnc3[C@H](C)OC)n4CC)CC(C)(C)COC(=O)[C@@H]3CCCN(N3)C2=O)C(C)C)C1 (atropisomer, axis not shown) [Example A676]
4. C=CC(=O)N1CCC(F)(C(=O)N(C)[C@H](C(=O)N[C@H]2C[C@H]3CN(CCO3)c3ccc4c(c3)c(c(-c3cccnc3[C@H](C)OC)n4CC)CC(C)(C)COC(=O)[C@@H]3CCCN(N3)C2=O)C(C)C)CC1 (atropisomer, axis not shown) [Example A722]
5. C=CC(=O)N1CC[C@H](C(=O)N(C)[C@H](C(=O)N[C@H]2Cc3nc(cs3)-c3ccc4c(c3)c(c(-c3cc5c(nc3[C@H](C)OC)CCN(C)C5)n4CC)CC(C)(C)COC(=O)[C@@H]3CCCN(N3)C2=O)C(C)C)C1 (atropisomer, axis not shown) [Example A472]
6. C=CC(=O)N1CC[C@H](C(=O)N(C)[C@H](C(=O)N[C@H]2Cc3cccc(c3)-c3ccc4c(c3)c(c(-c3cccnc3[C@H](C)OC)n4CC)CC(C)(C)COC(=O)[C@@H]3CCCN(N3)C2=O)C(C)C)[C@H]1C (atropisomer, axis not shown) [Example A373]
7. CCn1c(-c2cccnc2[C@H](C)OC)c2c3cc(ccc31)-c1csc(n1)C[C@H](NC(=O)[C@H](C(C)C)N(C)C(=O)N1CCN(C(=O)/C=C/CN(C)C)C3(CC3)C1)C(=O)N1CCC[C@H](N1)C(=O)OCC(C)(C)C2 (atropisomer, axis not shown) [Example A701]

1: > 10000 nM; 2: > 10000 nM; 3: 1000 to 10000 nM; 4: 100 to 1000 nM; 5: 1000 to 10000 nM; 6: 100 to 1000 nM; 7: 100 to 1000 nM
